- protocol: Dye hue from spectrophotometric curves: λ-max, half band width, curve shape factor
- reported.conditions: Table I; coupler solvent CS-2; developer D-3
Attribute: HBW (half band width)

molecule	HBW (half band width) [nanometers]
CCCCCCCCCCCCC(Oc1ccc(O)c(C(C)(C)C)c1)C(=O)Nc1ccc(Cl)c(NC2=NN(c3c(Cl)cc(Cl)cc3Cl)C(=O)C2)c1 (centres unmarked) [CC-2, reference compound]	79
CCCCCCCCCCC(Oc1ccc(S(=O)(=O)c2ccc(O)cc2)cc1)C(=O)Nc1ccc(Cl)c(NC2=NN(c3c(Cl)cc(Cl)cc3Cl)C(=O)C2)c1 (centres unmarked) [Coupler M-28]	94
CCCCCCCCCCC(Oc1ccc(S(=O)(=O)c2ccc(O)cc2)cc1)C(=O)Nc1ccc(Cl)c(NC2=NN(c3c(Cl)cc(Cl)cc3Cl)C(=O)C2SCCCCCCC)c1 (centres unmarked) [Coupler M-29]	90
CCC(C)(C)c1ccc(OCC(=O)Nc2cccc(C(=O)NC3=NN(c4c(Cl)cc(Cl)cc4Cl)C(=O)C3)c2)c(C(C)(C)CC)c1 [CC-3, reference compound]	88
CCCCCCCCCCC(Oc1ccc(S(=O)(=O)c2ccc(O)cc2)cc1)C(=O)Nc1ccc(CCCc2n[nH]c3cc(C)nn23)cc1 (centres unmarked) [Coupler M-8]	86
